# Measured Target: human Cereblon WT GST-tagged protein (Homo sapiens, UniProt Q96SW2)
# Sequence (Q96SW2 whole entry): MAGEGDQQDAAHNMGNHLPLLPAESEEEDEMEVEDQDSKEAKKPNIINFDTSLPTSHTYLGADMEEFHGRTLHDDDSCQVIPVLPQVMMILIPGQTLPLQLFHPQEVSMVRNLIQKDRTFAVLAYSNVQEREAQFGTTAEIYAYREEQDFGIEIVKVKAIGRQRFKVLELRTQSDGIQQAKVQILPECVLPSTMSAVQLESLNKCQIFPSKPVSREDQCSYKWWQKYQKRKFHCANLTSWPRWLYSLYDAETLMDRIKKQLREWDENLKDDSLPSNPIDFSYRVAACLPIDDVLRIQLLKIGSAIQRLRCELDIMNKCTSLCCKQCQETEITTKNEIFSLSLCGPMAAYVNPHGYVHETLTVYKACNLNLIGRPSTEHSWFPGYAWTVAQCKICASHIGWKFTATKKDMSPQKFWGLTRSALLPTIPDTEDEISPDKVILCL
pIC50: −log10 of the molar value.
A collection of molecules and their measured pIC50

[[record]]
molecule = "O=C1CCC(N2Cc3cc(SC4C[C@@H]5CN(C(=O)c6ccccc6-c6ccc(Cl)cc6)C[C@@H]5C4)ccc3C2=O)C(=O)N1 (stereo partly drawn)"
measured_target = "human Cereblon WT GST-tagged protein (Homo sapiens, UniProt Q96SW2)"
measured = "> 6.30"

[[record]]
molecule = "O=C1CCC(N2Cc3cc(SC4CC5(CCNCC5)C4)ccc3C2=O)C(=O)N1 (stereo not drawn)"
measured_target = "human Cereblon WT GST-tagged protein (Homo sapiens, UniProt Q96SW2)"
measured = "6.00 to 6.30"

[[record]]
molecule = "O=C1CCC(N2Cc3c(SC4CNC4)cccc3C2=O)C(=O)N1 (stereo not drawn)"
measured_target = "human Cereblon WT GST-tagged protein (Homo sapiens, UniProt Q96SW2)"
measured = "6.00 to 6.30"

[[record]]
molecule = "O=C1CCC(N2Cc3cc(SC4CC5CNCC5C4)ccc3C2=O)C(=O)N1 (stereo not drawn)"
measured_target = "human Cereblon WT GST-tagged protein (Homo sapiens, UniProt Q96SW2)"
measured = "5.72 to 6.00"

[[record]]
molecule = "O=C1CCC(N2Cc3cc(OC4CN(Cc5ccc(-c6ccco6)s5)C4)ccc3C2=O)C(=O)N1 (stereo not drawn)"
measured_target = "human Cereblon WT GST-tagged protein (Homo sapiens, UniProt Q96SW2)"
measured = "> 6.30"

[[record]]
molecule = "CC1(C)CCC(CN2CC(Oc3ccc4c(c3)C(=O)N(C3CCC(=O)NC3=O)C4)C2)=C(c2ccc(Cl)cc2)C1 (stereo not drawn)"
measured_target = "human Cereblon WT GST-tagged protein (Homo sapiens, UniProt Q96SW2)"
measured = "5.72 to 6.00"


Query O=C1CCC(N2Cc3cc(OC4CCCN(Cc5ccccc5-c5ccc(Cl)cc5)CC4)ccc3C2=O)C(=O)N1 (stereo not drawn) on human Cereblon WT GST-tagged protein (Homo sapiens, UniProt Q96SW2); pIC50 returned: > 6.30

Query O=C1CCC(N2Cc3cc(SC4CCN(C(c5ccccc5)c5ccccc5)C4)ccc3C2=O)C(=O)N1 (stereo not drawn) on human Cereblon WT GST-tagged protein (Homo sapiens, UniProt Q96SW2); pIC50 returned: 6.00 to 6.30

Query O=C1CCC(N2Cc3cc(SC4CN(Cc5cnc(-c6ccccc6)cn5)C4)ccc3C2=O)C(=O)N1 (stereo not drawn) on human Cereblon WT GST-tagged protein (Homo sapiens, UniProt Q96SW2); pIC50 returned: > 6.30

Query O=C1CCC(N2Cc3cc(SC4CN(C(c5ccccc5)c5ccccn5)C4)ccc3C2=O)C(=O)N1 (stereo not drawn) on human Cereblon WT GST-tagged protein (Homo sapiens, UniProt Q96SW2); pIC50 returned: > 6.30

Query COc1ccc(C(c2ccc(OC)cc2)N2CC(Oc3ccc4c(c3)CN(C3CCC(=O)NC3=O)C4=O)C2)cc1 (stereo not drawn) on human Cereblon WT GST-tagged protein (Homo sapiens, UniProt Q96SW2); pIC50 returned: > 6.30

Query O=C1CCC(N2Cc3cc(SC4CN(C(c5cccc(F)c5)c5cccc(F)c5)C4)ccc3C2=O)C(=O)N1 (stereo not drawn) on human Cereblon WT GST-tagged protein (Homo sapiens, UniProt Q96SW2); pIC50 returned: 6.00 to 6.30

Query O=C1CCC(N2Cc3cc(OC4CC5(CCN(C(c6ccccc6)c6ccccc6)CC5)C4)ccc3C2=O)C(=O)N1 (stereo not drawn) on human Cereblon WT GST-tagged protein (Homo sapiens, UniProt Q96SW2); pIC50 returned: > 6.30

Query COc1ccc(C(c2ccc(OC)cc2)N2CC(Sc3ccc4c(c3)CN(C3CCC(=O)NC3=O)C4=O)C2)cc1 (stereo not drawn) on human Cereblon WT GST-tagged protein (Homo sapiens, UniProt Q96SW2); pIC50 returned: > 6.30

Query CC1(C)CCC(CN2CCCC(Oc3ccc4c(c3)CN(C3CCC(=O)NC3=O)C4=O)CC2)=C(c2ccc(Cl)cc2)C1 (stereo not drawn) on human Cereblon WT GST-tagged protein (Homo sapiens, UniProt Q96SW2); pIC50 returned: 6.00 to 6.30

Query CC1(C)CCC(CN2CC(Sc3ccc4c(c3)C(=O)N(C3CCC(=O)NC3=O)C4)C2)=C(c2ccc(Cl)cc2)C1 (stereo not drawn) on human Cereblon WT GST-tagged protein (Homo sapiens, UniProt Q96SW2); pIC50 returned: 5.72 to 6.00

Query O=C1CCC(N2Cc3cc(OC4CN(C(c5ccc(F)cc5)c5ccc(F)cc5)C4)ccc3C2=O)C(=O)N1 (stereo not drawn) on human Cereblon WT GST-tagged protein (Homo sapiens, UniProt Q96SW2); pIC50 returned: 6.00 to 6.30

Query O=C1CCC(N2Cc3cc(OC4CN(Cc5ccccc5-c5ccc(Cl)cc5)C4)ccc3C2=O)C(=O)N1 (stereo not drawn) on human Cereblon WT GST-tagged protein (Homo sapiens, UniProt Q96SW2); pIC50 returned: 6.00 to 6.30

Query O=C1CCC(N2Cc3cc(SC4CCNCC4(F)F)ccc3C2=O)C(=O)N1 (stereo not drawn) on human Cereblon WT GST-tagged protein (Homo sapiens, UniProt Q96SW2); pIC50 returned: 6.00 to 6.30

Query O=C1CCC(N2Cc3cc(SC4CC5CN(Cc6ccccc6-c6ccc(Cl)cc6)CC5C4)ccc3C2=O)C(=O)N1 (stereo not drawn) on human Cereblon WT GST-tagged protein (Homo sapiens, UniProt Q96SW2); pIC50 returned: 5.72 to 6.00

Query CC1(C)CCC(CN2CC(Sc3ccc4c(c3)CN(C3CCC(=O)NC3=O)C4=O)C2)=C(c2ccc(F)cc2)C1 (stereo not drawn) on human Cereblon WT GST-tagged protein (Homo sapiens, UniProt Q96SW2); pIC50 returned: > 6.30

Query CC1(C)CCC(CN2CCC(Sc3ccc4c(c3)CN(C3CCC(=O)NC3=O)C4=O)C2)=C(c2ccc(Cl)cc2)C1 (stereo not drawn) on human Cereblon WT GST-tagged protein (Homo sapiens, UniProt Q96SW2); pIC50 returned: > 6.30

Query O=C1CCC(N2Cc3cc(SC4CN(CC5=C(c6ccc(Cl)cc6)CCOC5)C4)ccc3C2=O)C(=O)N1 (stereo not drawn) on human Cereblon WT GST-tagged protein (Homo sapiens, UniProt Q96SW2); pIC50 returned: > 6.30

Query O=C1CCC(N2Cc3cc(OC4CN(C(=O)c5ccccc5-c5ccc(Cl)cc5)C4)ccc3C2=O)C(=O)N1 (stereo not drawn) on human Cereblon WT GST-tagged protein (Homo sapiens, UniProt Q96SW2); pIC50 returned: > 6.30

Query O=C1CCC(N2Cc3cc(SC4CN(C(c5ccccc5)c5cccnc5)C4)ccc3C2=O)C(=O)N1 (stereo not drawn) on human Cereblon WT GST-tagged protein (Homo sapiens, UniProt Q96SW2); pIC50 returned: > 6.30

Query O=C1CCC(N2Cc3cc(OC4CCN(C(=O)c5ccccc5-c5ccc(Cl)cc5)CC4)ccc3C2=O)C(=O)N1 (stereo not drawn) on human Cereblon WT GST-tagged protein (Homo sapiens, UniProt Q96SW2); pIC50 returned: > 6.30

Query O=C1CCC(N2Cc3cc(SC4CCN(C(=O)c5ccccc5-c5ccc(Cl)cc5)C4)ccc3C2=O)C(=O)N1 (stereo not drawn) on human Cereblon WT GST-tagged protein (Homo sapiens, UniProt Q96SW2); pIC50 returned: > 6.30

Query O=C1CCC(N2Cc3cc(SC4CCNCC4)ccc3C2=O)C(=O)N1 (stereo not drawn) on human Cereblon WT GST-tagged protein (Homo sapiens, UniProt Q96SW2); pIC50 returned: 5.72 to 6.00

Query O=C1CCC(N2Cc3cc(SC4CN(C(c5ccc(F)cc5)c5ccc(F)cc5)C4)ccc3C2=O)C(=O)N1 (stereo not drawn) on human Cereblon WT GST-tagged protein (Homo sapiens, UniProt Q96SW2); pIC50 returned: 6.00 to 6.30

Query O=C1CCC(N2Cc3cc(SC4CCCN(C(=O)c5ccccc5-c5ccc(Cl)cc5)CC4)ccc3C2=O)C(=O)N1 (stereo not drawn) on human Cereblon WT GST-tagged protein (Homo sapiens, UniProt Q96SW2); pIC50 returned: > 6.30
